System: NCI/ADR-RES ovarian
Assay: NCI-60 one-dose screen, 48 h (100 = growth as untreated, 0 = no growth, -100 = all killed)
Settings: 10 µM unless noted
The panel holds about 83,000 compounds, 20% with a hit somewhere; the sample as a whole holds those more often.
Listed compounds paired with reported growth
Reply with just the number (in %).

[Q] Indicate the recorded growth value for this compound: "Cc1ccc([N+](=O)[O-])cc1NC(=O)Nc1cccc(F)c1"
[A] 64.3

***
[Q] Indicate the recorded growth value for this compound: "O=[N+]([O-])c1ccc(N/N=C/c2c(O)ccc3ccccc23)nc1"
[A] 27.3

[Q] Indicate the recorded growth value for this compound: "CN(CC(=O)Nc1nc2ccccc2[nH]1)S(=O)(=O)c1ccc(Cl)cc1"
[A] 88.3

Data credit: PubChem BioAssay (NCI)
